Tested on: 475296-252-R-J1-PDC spheroid viability;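 further: spheroids exposed to agents for seven days before readout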
Assay: Anticancer human tumor 475296-252-R-J1-PDC patient-derived rectal carcinoma cell line growth inhibition [PI3K]
Conditions: second compound 0.0316 µM; first compound 0.1 µM; active compounds read low; spheroids with HUVEC and MSC
READOUT LABEL: viability, T/C (%)

{"columns": ["MOLECULE", "READOUT LABEL", "OBSERVED"],
 "data": [
  ["CC(=O)c1c(C)c2cnc(Nc3ccc(N4CCNCC4)cn3)nc2n(C2CCCC2)c1=O + Cc1nc(NC(=O)N2CCCC2C(N)=O)sc1-c1ccnc(C(C)(C)C(F)(F)F)c1", "viability, T/C", 118],
  ["Cn1ncnc1[C@H]1c2n[nH]c(=O)c3cc(F)cc(c23)N[C@@H]1c1ccc(F)cc1 + Cc1nc(NC(=O)N2CCCC2C(N)=O)sc1-c1ccnc(C(C)(C)C(F)(F)F)c1", "viability, T/C", 101],
  ["CC1(C)CCC(CN2CCN(c3ccc(C(=O)NS(=O)(=O)c4ccc(NCC5CCOCC5)c([N+](=O)[O-])c4)c(Oc4cnc5[nH]ccc5c4)c3)CC2)=C(c2ccc(Cl)cc2)C1 + CC(Nc1ccc2c(c1)OCCn1cc(N3C(=O)OCC3C(F)F)nc1-2)C(N)=O", "viability, T/C", 96],
  ["CC(Cn1ccc(-c2ccc(C#N)c(Cl)c2)n1)NC(=O)c1cc(C(C)O)[nH]n1 (stereo unspecified) + CC(Nc1ccc2c(c1)OCCn1cc(N3C(=O)OCC3C(F)F)nc1-2)C(N)=O", "viability, T/C", 102],
  ["Cn1ncnc1[C@H]1c2n[nH]c(=O)c3cc(F)cc(c23)N[C@@H]1c1ccc(F)cc1 + CC(Nc1ncnc2nc[nH]c12)c1cc2cccc(Cl)c2c(=O)n1-c1ccccc1", "viability, T/C", 96.8],
  ["CC(Cn1ccc(-c2ccc(C#N)c(Cl)c2)n1)NC(=O)c1cc(C(C)O)[nH]n1 (stereo unspecified) + Cc1nc(NC(=O)N2CCCC2C(N)=O)sc1-c1ccnc(C(C)(C)C(F)(F)F)c1", "viability, T/C", 108],
  ["CCCS(=O)(=O)Nc1ccc(F)c(C(=O)c2c[nH]c3ncc(-c4ccc(Cl)cc4)cc23)c1F + CC(Nc1ccc2c(c1)OCCn1cc(N3C(=O)OCC3C(F)F)nc1-2)C(N)=O", "viability, T/C", 94.8],
  ["Cn1ncnc1[C@H]1c2n[nH]c(=O)c3cc(F)cc(c23)N[C@@H]1c1ccc(F)cc1 + CC(Nc1ccc2c(c1)OCCn1cc(N3C(=O)OCC3C(F)F)nc1-2)C(N)=O", "viability, T/C", 96.6],
  ["Cn1nccc1Nc1nccc(-c2ccn(C(CO)c3ccc(Cl)c(F)c3)c(=O)c2)n1 (stereo unspecified) + CC(Nc1ncnc2nc[nH]c12)c1cc2cccc(Cl)c2c(=O)n1-c1ccccc1", "viability, T/C", 102],
  ["C=CC(=O)N1CCN(c2nc(=O)n(-c3c(C)ccnc3C(C)C)c3nc(-c4c(O)cccc4F)c(F)cc23)C(C)C1 (stereo unspecified) + COc1c(OCCCN2CCOCC2)ccc2c3n(c(=NC(=O)c4cnc(N)nc4)nc12)CCN3", "viability, T/C", 91.1],
  ["CC(C)n1nc(-c2ccc3oc(N)nc3c2)c2c(N)ncnc21 + CC(Nc1ccc2c(c1)OCCn1cc(N3C(=O)OCC3C(F)F)nc1-2)C(N)=O", "viability, T/C", 58]
]}
